This section presents compounds with their documented EC50 values.
- Tested on: full-length HCV RNA replication in ORL11 cells
- method description: microbe, parasite or virus in culture
- Assay type: cell-based, HCV-O strain (genotype 1b)
- assay conditions: Hepatitis C virus, 72 h, luciferase activity after 72 hours, read-out: EC50
- Experimental: Renilla luciferase was quantified by collecting cells using a Renilla Luciferase Assay System (Promega) according to the manufacturer's experiment protocol. Luciferase activity of each cell line was then measured at hour 24, 48, and 72. […] SD values were calculated based on the results from three samples at each point. […]
value kind: EC50

compound: CCCCCCC(=O)CCCCCC/C=C/C[C@@H](O)[C@H](O)[C@@](N)(CO)C(=O)O [Myriocin]
endpoint value: 3.62 nM

compound: CCC(C)(C)C(=O)O[C@H]1C[C@@H](C)C=C2C=C[C@H](C)[C@H](CC[C@@H]3C[C@@H](O)CC(=O)O3)[C@H]21 [SMV, Simvastatin]
endpoint value: 150 nM

compound: CC[C@H](C)C(=O)O[C@H]1C[C@@H](C)C=C2C=C[C@H](C)[C@H](CC[C@@H]3C[C@@H](O)CC(=O)O3)[C@H]21 [LOV, Lovastatin]
endpoint value: 1040 nM

compound: O=C(O)C[C@H](O)C[C@H](O)/C=C/c1c(C2CC2)nc2ccccc2c1-c1ccc(F)cc1 [PTV, Pitavastatin]
endpoint value: 160 nM

compound: NC(=O)c1ncn([C@@H]2O[C@H](CO)[C@@H](O)[C@H]2O)n1 [Ribavirin]
endpoint value: 15900 nM

compound: NC(=O)c1ncn([C@@H]2O[C@H](CO)[C@@H](O)[C@H]2O)c1O [Mizoribine]
endpoint value: 76500 nM

compound: COC1=C2C[C@@H](C)C[C@H](OC)[C@H](O)[C@@H](C)/C=C(\C)[C@H](OC(N)=O)[C@@H](OC)/C=C\C=C(/C)C(=O)NC(=CC1=O)C2=O [Geldanamycin]
endpoint value: 3.31 nM

compound: CC(C)n1c(/C=C/C(O)CC(O)CC(=O)O)c(-c2ccc(F)cc2)c2ccccc21 (centres unmarked) [FLV, Fluvastatin]
endpoint value: 320 nM

====

- System: OR6 cells
- method description: cell count by trypan blue staining, OR6 cells
- Format: cell-based, human
- assay conditions: drug at the concentration corresponding to the EC50 value

molecule: NC(=O)c1ncn([C@@H]2O[C@H](CO)[C@@H](O)[C@H]2O)n1 [Ribavirin]
cell count over the control cells: ≥ 98%
--
molecule: CC(=O)Oc1ccccc1C(=O)O [ASA, Acetylsalicylic Acid]
cell count over the control cells: 51%
--
molecule: O=C(O)C[C@H](O)C[C@H](O)/C=C/c1c(C2CC2)nc2ccccc2c1-c1ccc(F)cc1 [PTV, Pitavastatin]
cell count over the control cells: ≥ 80%
--
molecule: CCCCCCC(=O)CCCCCC/C=C/C[C@@H](O)[C@H](O)[C@@](N)(CO)C(=O)O [Myriocin]
cell count over the control cells: ≥ 91%
--
molecule: CC(C)n1c(/C=C/C(O)CC(O)CC(=O)O)c(-c2ccc(F)cc2)c2ccccc21 (centres unmarked) [FLV, Fluvastatin]
cell count over the control cells: ≥ 97%

====

- System: ORL8 cells
- method description: cell count by trypan blue staining, ORL8 cells
- Format: cell-based, human
- assay conditions: drug at the concentration corresponding to the EC50 value

compound: CC(C)n1c(/C=C/C(O)CC(O)CC(=O)O)c(-c2ccc(F)cc2)c2ccccc21 (centres unmarked)
result modifier: ≥
cell count over the control cells, %: 97

compound: O=C(O)C[C@H](O)C[C@H](O)/C=C/c1c(C2CC2)nc2ccccc2c1-c1ccc(F)cc1
result modifier: ≥
cell count over the control cells, %: 80

compound: CCCCCCC(=O)CCCCCC/C=C/C[C@@H](O)[C@H](O)[C@@](N)(CO)C(=O)O
result modifier: =
cell count over the control cells, %: 83.5

compound: CC(=O)Oc1ccccc1C(=O)O
result modifier: =
cell count over the control cells, %: 53

compound: NC(=O)c1ncn([C@@H]2O[C@H](CO)[C@@H](O)[C@H]2O)n1
result modifier: ≥
cell count over the control cells, %: 98

====

This section presents compounds with their documented log10 EC50 values.
- System: full-length HCV RNA replication in OR6 cells
- method description: microbe, parasite or virus in culture
- Assay type: cell-based, HCV-O strain (genotype 1b)
- assay conditions: Hepatitis C virus; OR6 cells; luciferase activity after 72 hours; read-out: EC50
value kind: log10 EC50 (log10 of the value in nM)

compound: CC[C@H](C)C(=O)O[C@H]1C[C@@H](C)C=C2C=C[C@H](C)[C@H](CC[C@@H]3C[C@@H](O)CC(=O)O3)[C@H]21
log10 EC50: 3.48
//
compound: O=C(O)C[C@H](O)C[C@H](O)/C=C/c1c(C2CC2)nc2ccccc2c1-c1ccc(F)cc1
log10 EC50: 2.66
//
compound: COC1=C2C[C@@H](C)C[C@H](OC)[C@H](O)[C@@H](C)/C=C(\C)[C@H](OC(N)=O)[C@@H](OC)/C=C\C=C(/C)C(=O)NC(=CC1=O)C2=O
log10 EC50: 0.32
//
compound: CC(C)n1c(/C=C/C(O)CC(O)CC(=O)O)c(-c2ccc(F)cc2)c2ccccc21 (stereo not drawn)
log10 EC50: 3.09
//
compound: NC(=O)c1ncn([C@@H]2O[C@H](CO)[C@@H](O)[C@H]2O)n1
log10 EC50: 5.08
//
compound: CCC(C)(C)C(=O)O[C@H]1C[C@@H](C)C=C2C=C[C@H](C)[C@H](CC[C@@H]3C[C@@H](O)CC(=O)O3)[C@H]21
log10 EC50: 3.15

====

- Test system: full-length HCV RNA replication in ORL8 cells
- method description: microbe, parasite or virus in culture
- Format: cell-based, HCV-O strain (genotype 1b)
- assay conditions: Hepatitis C virus; ORL8 cells; luciferase activity after 72 hours; read-out: EC50
pEC50: −log10 of the molar value.
This section presents compounds with their documented pEC50 values.

compound: NC(=O)c1ncn([C@@H]2O[C@H](CO)[C@@H](O)[C@H]2O)n1
study target: full-length HCV RNA replication in ORL8 cells
pEC50: 5.00

compound: CCC(C)(C)C(=O)O[C@H]1C[C@@H](C)C=C2C=C[C@H](C)[C@H](CC[C@@H]3C[C@@H](O)CC(=O)O3)[C@H]21
study target: full-length HCV RNA replication in ORL8 cells
pEC50: 6.55

compound: O=C(O)C[C@H](O)C[C@H](O)/C=C/c1c(C2CC2)nc2ccccc2c1-c1ccc(F)cc1
study target: full-length HCV RNA replication in ORL8 cells
pEC50: 6.35

compound: NC(=O)c1ncn([C@@H]2O[C@H](CO)[C@@H](O)[C@H]2O)c1O
study target: full-length HCV RNA replication in ORL8 cells
pEC50: 4.23

compound: COC1=C2C[C@@H](C)C[C@H](OC)[C@H](O)[C@@H](C)/C=C(\C)[C@H](OC(N)=O)[C@@H](OC)/C=C\C=C(/C)C(=O)NC(=CC1=O)C2=O
study target: full-length HCV RNA replication in ORL8 cells
pEC50: 8.59

compound: CC(C)n1c(/C=C/C(O)CC(O)CC(=O)O)c(-c2ccc(F)cc2)c2ccccc21 (centres unmarked)
study target: full-length HCV RNA replication in ORL8 cells
pEC50: 6.55

compound: CC[C@H](C)C(=O)O[C@H]1C[C@@H](C)C=C2C=C[C@H](C)[C@H](CC[C@@H]3C[C@@H](O)CC(=O)O3)[C@H]21
study target: full-length HCV RNA replication in ORL8 cells
pEC50: 5.83

compound: CCCCCCC(=O)CCCCCC/C=C/C[C@@H](O)[C@H](O)[C@@](N)(CO)C(=O)O
study target: full-length HCV RNA replication in ORL8 cells
pEC50: 8.29

====

This section presents compounds with their documented cell count over the control cells values.
- System: ORL11 cells
- method description: cell count by trypan blue staining, ORL11 cells
- Assay type: cell-based, human
- assay conditions: ORL11 cells; drug at the concentration corresponding to the EC50 value; trypan blue

compound: CCCCCCC(=O)CCCCCC/C=C/C[C@@H](O)[C@H](O)[C@@](N)(CO)C(=O)O
cell count over the control cells: ≥ 91%
--
compound: CC(=O)Oc1ccccc1C(=O)O
cell count over the control cells: 72%
--
compound: CC(C)n1c(/C=C/C(O)CC(O)CC(=O)O)c(-c2ccc(F)cc2)c2ccccc21 (centres unmarked)
cell count over the control cells: ≥ 97%
--
compound: O=C(O)C[C@H](O)C[C@H](O)/C=C/c1c(C2CC2)nc2ccccc2c1-c1ccc(F)cc1
cell count over the control cells: ≥ 80%
--
compound: NC(=O)c1ncn([C@@H]2O[C@H](CO)[C@@H](O)[C@H]2O)n1
cell count over the control cells: ≥ 98%
